target: rat 5-HT7 receptor (Rattus norvegicus (Rat), UniProt P32305); assay: r5-HT7 binding assay, competitive radioligand binding with [3H]5-CT; conditions: rat 5-HT7, HEK-293 membranes
Sequence (P32305 1-435): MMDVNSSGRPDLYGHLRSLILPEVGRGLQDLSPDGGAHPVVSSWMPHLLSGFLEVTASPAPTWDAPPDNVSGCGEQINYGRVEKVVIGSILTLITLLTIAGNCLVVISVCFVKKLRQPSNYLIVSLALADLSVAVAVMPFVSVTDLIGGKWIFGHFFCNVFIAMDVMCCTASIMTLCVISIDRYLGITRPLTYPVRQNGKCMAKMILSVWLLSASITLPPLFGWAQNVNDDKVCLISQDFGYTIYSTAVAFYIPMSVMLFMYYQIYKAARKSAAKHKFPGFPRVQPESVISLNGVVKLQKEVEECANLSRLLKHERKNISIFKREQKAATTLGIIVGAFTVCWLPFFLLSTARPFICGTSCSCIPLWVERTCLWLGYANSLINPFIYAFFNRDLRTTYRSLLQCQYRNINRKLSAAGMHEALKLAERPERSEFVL
pKi: −log10 of the molar value.
PROPERTY_LABEL: pKi

Look over these answered cases.
In [3]: df
Out[3]:
                                   molecule  numeric_result
0  CC(C)N1CC(Oc2cc(Cl)ccc2C(=O)c2ccc3c(c2)OCO3)C1            6.74
1    Clc1ccc(OC2CN(c3ccccc3)C2)c(OC2CNC2)c1            7.74
2  Clc1ccc(OC2CN(C(c3ccccc3)c3ccccc3)C2)c(OC2CNC2)c1            5.57

A = Cc1ccccc1C(=O)c1ccc(Br)cc1OC1CNC1
B = CC(C)(C)N1CC(Oc2cc(Br)ccc2OCc2cccc(F)c2)C1
C = O=C(c1ccc(Cl)c(F)c1)c1ccc(Br)cc1OC1CNC1
D = Clc1cccc(COc2ccc(Br)cc2COC2CNC2)c1
INPUT: // sort entries: pKi, high to low Sort the labels as requested; that list is your answer.
OUTPUT: B, C, D, A
(B: 8.52, C: 7.13, D: 6.92, A: 5.52)

a = O=C(c1ccc(Cl)cc1)c1ccc(Br)cc1OC1CNC1
b = Clc1ccc(Oc2ccc(Br)cc2OC2CNC2)cc1
INPUT: Which of the two items, a and b , has the greater recorded pKi? Give the chosen item's label as your response.
OUTPUT: b

P = O=C(c1ccc(Cl)c(Cl)c1)c1ccc(Br)cc1OC1CNC1
Q = CC(C)C1(Oc2cc(Br)ccc2OCc2cccc(Cl)c2)CNC1
INPUT: Form field 'greater pKi' accepts P or Q ; which applies? Pick one and reply with its label.
OUTPUT: P

1 = O=C(c1cccc(Cl)c1)c1ccc(Br)cc1OC1CNC1
2 = CC1(Oc2cc(Br)ccc2OCCc2ccccc2)CNC1
INPUT: I'm curious whether 1 or 2 has the smaller pKi number. Which is it? The response must carry the label of the picked entry.
OUTPUT: 1
